Experiment: chemical genetic growth profiling, strain panel (AID 1159580);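 note: tested at 20 µM; growth read once vehicle control cultures reached saturation at 30 °C; 1 = growth at the plate median or of vehicle wells; lower values mean less growth of the strain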
Settings: S. cerevisiae deletion strains, growth OD, locus YLR221C, strain rsa3
In all, about 5,500 compounds went through this assay and about 2,000 (36%) were called active. Another 18% or so got no clear call; they are omitted. Cut-off read from the data, not from the text of the source: active = normalized growth mostly below about 0.91 (no sharp cut-off); inconclusive = no clear call, values can overlap the other calls; inactive = mostly above about 0.92. This is one part of the list.
Hi! Could you answer with just one of these? y (active), n (inactive)

As a guide, the following entries are already answered.
{"COMPOUND": "N[C@@H](CC(=O)N1CCn2c(nnc2C(F)(F)F)C1)Cc1cc(F)c(F)cc1F", "CLASS_LABEL": "n"}
{"COMPOUND": "CC1OC1P(=O)(O)O (stereo unspecified)", "CLASS_LABEL": "n"}
{"COMPOUND": "COc1cc(-c2coc3cc(OC)c(OC)c(OC)c3c2=O)cc(OC)c1OC", "CLASS_LABEL": "n"}
{"COMPOUND": "COC(=O)C[C@H]1C(C)(C)C(=O)[C@@H]2CC3=C(CC[C@]4(C)C3=CC(=O)O[C@H]4c3ccoc3)[C@@]1(C)C2=O", "CLASS_LABEL": "n"}
{"COMPOUND": "CC(=O)OC1CCC2(C)C(=CC=C3C2CCC2(C)C3CCC2C(C)/C=C/C(C)C(C)C)C1(C)C (stereo unspecified)", "CLASS_LABEL": "n"}

Just curious, what result did COc1c2ccoc2c(OC)c2oc(=O)ccc12 get here? n

Also, Cc1ccc(C)c(OCCCC(C)(C)C(=O)O)c1 please. n

Also, COc1ccc2c(c1OC)C(=O)OC2[C@H]1c2c(cc3c(c2OC)OCO3)CCN1C (stereo partly specified) please. n

Also, O=C(C1CCCCC1)N1CC(=O)N2CCc3ccccc3C2C1 (stereo unspecified) please. n

Also, CCCCN1CCCCC1C(=O)Nc1c(C)cccc1C (stereo unspecified) please. n

Also, O=C1OC2(c3ccc(O)cc3Oc3cc(O)ccc32)c2ccccc21 please. n

Also, Oc1ccc(Cl)cc1 please. n

Also, Cc1cc(-c2ccccc2)nnc1NCCN1CCOCC1 please. n

Also, C=C1CCC2C(CC2(C)C)C(=C)CC/C1=N\O (stereo unspecified) please. n

Also, CCN(CC)C(=O)c1cccc(C)c1 please. n

* * *

Test: chemical genetic growth profiling, strain panel (AID 1159580)
Details: S. cerevisiae deletion strains, growth OD, locus YKR091W, strain srl3, hits give low values
Hit rate of the full screen: of about 5,500 compounds, about 2,000 (36%) were called active. Inconclusive results (about 18%) are left out. The list shows a part of the results.
PARAMETER: normalized growth
Answers are plain numbers.

Observe how each entry below is paired with its result.
{"MOLECULE": "CC(C(=O)O)c1ccc(C(=O)c2cccs2)cc1 (centres undefined)", "normalized growth": 1.01}
{"MOLECULE": "CC(=O)Oc1c(C)cccc1C(=O)O", "normalized growth": 1.02}
{"MOLECULE": "CCCCN(CCCC)CCCOC(=O)c1ccc(N)cc1", "normalized growth": 0.992}
{"MOLECULE": "O=C1OC(c2ccc(O)cc2)(c2ccc(O)cc2)c2ccccc21", "normalized growth": 0.989}
{"MOLECULE": "C=C1C(=O)OC2CC1C(OC(C)=O)C/C(C)=C/CC/C(C)=C/CC[C@]2(C)O (some centres undefined)", "normalized growth": 0.981}

Provide normalized growth for all items below, preserving their order.
1. O=C1C=C2C=C[C@@H]3C[C@@]2(O1)[C@H]1CCCCN31
2. O=C1OC2(c3ccc(O)cc3Oc3cc(O)ccc32)c2ccccc21

0.992
1.02

Provide normalized growth for all items below, preserving their order.
1. OCCOCCN1CCN(C2=Nc3ccccc3Sc3ccccc32)CC1
2. CC(C)(C)CC(C)(C)c1ccc(O)c(Cc2ccc(Cl)cc2Cl)c1
3. CCCC(=O)O[C@]1(C(=O)CO)CCC2[C@@H]3CCC4=CC(=O)CC[C@]4(C)C3[C@@H](O)C[C@@]21C (some centres undefined)
4. NC(CO)C(=O)NNCc1ccc(O)c(O)c1O (centres undefined)

1. 1.01
2. 1.02
3. 1
4. 0.993

Provide normalized growth for all items below, preserving their order.
1. CCCCNc1ccc(C(=O)OCCN(C)C)cc1
2. CCCCCCCCCCCCCCCC(=O)OC1C(SC)OC(C(NC(=O)C2CC(CCC)CN2C)C(C)Cl)C(O)C1O (centres undefined)
3. Oc1ccc(Cl)cc1
4. OC(Cn1cncn1)(Cn1cncn1)c1ccc(F)cc1F
5. COc1c(OC)c2occc2c2oc(=O)ccc12
6. CO[C@@]1(NC(=O)CSCC#N)C(=O)N2C(C(=O)O)=C(CSc3nnnn3C)CSC21 (some centres undefined)

1. 1.01
2. 0.985
3. 1.01
4. 1.01
5. 0.985
6. 0.982

Provide normalized growth for all items below, preserving their order.
1. O=c1[nH]oc2c1CCNC2
2. O=S1OCC2C(CO1)C1(Cl)C(Cl)=C(Cl)C2(Cl)C1(Cl)Cl (centres undefined)

1: 1; 2: 0.991

* * *

Assay: chemical genetic growth profiling, strain panel (AID 1159580);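 note: tested at 20 µM; growth read once vehicle control cultures reached saturation at 30 °C; 1 = growth at the plate median or of vehicle wells; lower values mean less growth of the strain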
Conditions: S. cerevisiae deletion strains, growth OD, locus YMR277W, strain FCP1, hits give low values
Among all 5,500 compounds or so, about 2,000 (36%) were called active. Not shown: some 18% with an inconclusive outcome. This is one part of the list.
Consider the following compounds; for each one, report its normalized growth.
Numbers only.

{"COMPOUND": "Cc1cccc(NC(=S)NNC(=O)CSCc2cccc3ccccc23)c1", "normalized growth": 0.988}
{"COMPOUND": "OC(CN1CCN(c2nc3ccc(Cl)cc3s2)CC1)Cn1ccc2ccccc21 (stereo unspecified)", "normalized growth": 1}
{"COMPOUND": "Cc1c(-c2ccnn2C(=O)c2ccco2)cnn1-c1ccccc1", "normalized growth": 0.938}

Provide normalized growth for all items below, preserving their order.
1. Cc1onc(-c2c(F)cccc2Cl)c1C(=O)ON=C1C2CC3CC(C2)CC1C3
2. Cc1onc(-c2c(Cl)cccc2Cl)c1C(=O)NC(C)(C)CC(C)(C)C
3. Cc1nc(-c2ccc(S(=O)(=O)Nc3ccc(Br)cc3Cl)s2)cs1
4. Cc1c(C(=S)Nc2ccccc2)sc2ccccc12
5. Cc1onc(-c2c(Cl)cccc2Cl)c1C(=O)NNc1c(Cl)cccc1Cl

1.06
0.998
0.94
0.939
0.967

Provide normalized growth for all items below, preserving their order.
1. CC(C)(C)c1ccc(C(=O)NNc2c(Cl)cccc2Cl)cc1
2. O=[N+]([O-])c1ccc(Sc2ssc(=S)c2-c2ccccc2)nc1
3. Cc1ccc(NS(=O)(=O)c2ccc(Cl)cc2)c(N=Cc2cc(Cl)cc(Cl)c2O)c1

[0.971, 0.961, 0.936]

* * *

Test: chemical genetic growth profiling, strain panel (AID 1159580);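 note: tested at 20 µM; growth read once vehicle control cultures reached saturation at 30 °C; 1 = growth at the plate median or of vehicle wells; lower values mean less growth of the strain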
Details: S. cerevisiae deletion strains, growth OD, locus YHR027C, strain rpn1, hits give low values
Out of some 5,500 compounds screened, about 2,000 (36%) were called active. Another 18% or so got no clear call; they are omitted. Some of the results follow.
Consider the following compounds; for each one, report its normalized growth.
Give bare numbers.

Observe how each entry below is paired with its result.
{"COMPOUND": "COc1cc2c(cc1OC)C1Cc3ccc(OC)c(OC)c3CN1CC2 (stereo not drawn)", "REPORTED_VALUE": 1}
{"COMPOUND": "O=C1[C@H](CCC(O)c2ccc(F)cc2)[C@@H](c2ccc(O)cc2)N1c1ccc(F)cc1 (stereo partly drawn)", "REPORTED_VALUE": 0.972}
{"COMPOUND": "COC(=O)C(C)c1ccc(C(=O)c2cccs2)cc1 (stereo not drawn)", "REPORTED_VALUE": 1.01}

Provide normalized growth for all items below, preserving their order.
1. Cc1ccc(C)c(OCCCC(C)(C)C(=O)O)c1
2. OCCOCCN1CCN(C2=Nc3ccccc3Sc3ccccc32)CC1

1: 0.983; 2: 1

Provide normalized growth for all items below, preserving their order.
1. COc1cc(OC)c2c(=O)c(-c3ccccc3)coc2c1
2. COc1cc(-c2coc3cc(OC)c(OC)c(OC)c3c2=O)cc(OC)c1OC
3. Cn1c(=O)c2[nH]cnc2n(C)c1=O

1: 1; 2: 0.997; 3: 1.02

* * *

Assay: chemical genetic growth profiling, strain panel (AID 1159580);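 note: tested at 20 µM; growth read once vehicle control cultures reached saturation at 30 °C; 1 = growth at the plate median or of vehicle wells; lower values mean less growth of the strain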
Details: S. cerevisiae deletion strains, growth OD, locus YNL322C, strain KRE1 (second series), hits give low values
In all, about 5,500 compounds went through this assay and about 2,000 (36%) were called active. Another 18% or so got no clear call; they are omitted. The list shows a part of the results.
PARAMETER: normalized growth
Answers are plain numbers.

Observe how each entry below is paired with its result.
{"COMPOUND": "CC1C[C@H]2CC(=O)[C@H]3CCCN4CCC[C@H]2[C@]34C1 (some centres undefined)", "normalized growth": 1}
{"COMPOUND": "CCCCC(=O)Oc1ccccc1C(=O)O", "normalized growth": 0.944}
{"COMPOUND": "COc1ccc2c(c1OC)C(=O)OC2[C@H]1c2c(cc3c(c2OC)OCO3)CCN1C (some centres undefined)", "normalized growth": 1.02}
{"COMPOUND": "NC(CO)C(=O)NNCc1ccc(O)c(O)c1O (centres undefined)", "normalized growth": 0.999}
{"COMPOUND": "CC(C(=O)O)c1ccc(C(=O)c2cccs2)cc1 (centres undefined)", "normalized growth": 0.994}

Provide normalized growth for all items below, preserving their order.
1. C=C1CCC(OC(C)=O)/C(C)=C/C[C@@H]2[C@@H]1CC2(C)C (some centres undefined)
2. CCCCN(CCCC)CCCOC(=O)c1ccc(N)cc1
3. C#CCCCCCCCCCCCC(O)CC(O)COC(C)=O (centres undefined)
4. C=C1CCC(C2CC(=O)OC2=O)C(=O)CCC2C1CC2(C)C (centres undefined)
5. C#CCCCCCCCCCCCC(=O)CC(O)COC(C)=O (centres undefined)
6. CCOC(=O)c1ccc(O)cc1
7. OC(Cn1cncn1)(Cn1cncn1)c1ccc(F)cc1F
8. C=C1CCC2C(CC2(C)C)C(=O)CCC1O (centres undefined)

1: 1.02; 2: 0.991; 3: 0.633; 4: 0.989; 5: 0.985; 6: 1.01; 7: 0.996; 8: 0.974

Query (compound): CCCCOC(=O)c1ccc(N)cc1 ; field requested: normalized growth 0.91
